From: ChEMBL document CHEMBL4819104

- ASSAY METHOD TEXT: Half life in dog hepatocytes
- Type: ADME, cell-based, Canis lupus familiaris, Hepatocyte
Hi, to clarify the labels: Condition met covers half-life from 7 h upward, Condition not met covers anything below 7 h.

Asked: Given the entry Cc1cc(NC(=O)[C@H](O)c2cccc(Cl)c2)ccc1-c1cnc(N)c(C(=O)NC(C)C)c1 , answer whether its half-life meets or surpasses 7 h.
Given back: Condition not met

Asked: Record CCNC(=O)c1cc(-c2ccc(NC(=O)[C@H](O)c3cc(F)cc(F)c3)cc2C)cnc1N ; criterion: half-life no lower than 7 h. Met?
Given back: Condition met

Asked: For this molecule, is measured half-life 7 h or higher? Cc1cc(NC(=O)[C@H](O)c2cc(F)cc(F)c2)ccc1-c1cnc(N)c(C(=O)NC2CC2)c1
Given back: Condition met

Asked: Exam item: decide whether the reported half-life for CCc1cc(NC(=O)[C@H](O)c2cc(F)cc(F)c2)ccc1-c1cnc(N)c(C(=O)NC(C)C)c1 is at least 7 h.
Given back: Condition met

Asked: Does half-life meet or surpass 7 h for Cc1cc(NC(=O)[C@H](O)c2cc(F)cc(F)c2)ccc1-c1cnc(N)c(C(=O)NC(C)C)c1 ?
Given back: Condition not met

* * *

Assignment: determine reported solubility for the given compounds.
- ASSAY METHOD TEXT: Aqueous solubility of the compound
- Format: physicochemical
- TEST PARAMETERS: buffer
State just the number; it will be interpreted in µM.

Asked: Any idea what solubility was measured for Cc1cc(NC(=O)[C@H](O)c2cc(F)cc(F)c2)ccc1-c1cnc(N)c(C(=O)NC(C)C)c1 ?
Given back: 31

Asked: Which solubility is reported for this compound? CCNC(=O)c1cc(-c2ccc(NC(=O)[C@H](O)c3cc(F)cc(F)c3)cc2C)cnc1N
Given back: 48

Asked: Please report the recorded solubility for CC(C)NC(=O)c1cc(-c2ccc(NC(=O)[C@H](O)c3cc(F)cc(F)c3)cc2Cl)cnc1N .
Given back: 13

Asked: Would you kindly share the measured solubility for CCc1cc(NC(=O)[C@H](O)c2cc(F)cc(F)c2)ccc1-c1cnc(N)c(C(=O)NC(C)C)c1 ?
Given back: 10

Asked: Given the entry Cc1cc(NC(=O)[C@H](O)c2cc(F)cc(F)c2)ccc1-c1cnc(N)c(C(=O)NC2CC2)c1 , report its measured solubility.
Given back: 37

Asked: Please report the recorded solubility for Cc1cc(NC(=O)[C@H](O)c2cccc(Cl)c2)ccc1-c1cnc(N)c(C(=O)NC(C)C)c1 .
Given back: 13

* * *

The listing below reports pIC50 for compounds tested on UniProtKB Q9NZJ5.
Sequence (Q9NZJ5 whole entry): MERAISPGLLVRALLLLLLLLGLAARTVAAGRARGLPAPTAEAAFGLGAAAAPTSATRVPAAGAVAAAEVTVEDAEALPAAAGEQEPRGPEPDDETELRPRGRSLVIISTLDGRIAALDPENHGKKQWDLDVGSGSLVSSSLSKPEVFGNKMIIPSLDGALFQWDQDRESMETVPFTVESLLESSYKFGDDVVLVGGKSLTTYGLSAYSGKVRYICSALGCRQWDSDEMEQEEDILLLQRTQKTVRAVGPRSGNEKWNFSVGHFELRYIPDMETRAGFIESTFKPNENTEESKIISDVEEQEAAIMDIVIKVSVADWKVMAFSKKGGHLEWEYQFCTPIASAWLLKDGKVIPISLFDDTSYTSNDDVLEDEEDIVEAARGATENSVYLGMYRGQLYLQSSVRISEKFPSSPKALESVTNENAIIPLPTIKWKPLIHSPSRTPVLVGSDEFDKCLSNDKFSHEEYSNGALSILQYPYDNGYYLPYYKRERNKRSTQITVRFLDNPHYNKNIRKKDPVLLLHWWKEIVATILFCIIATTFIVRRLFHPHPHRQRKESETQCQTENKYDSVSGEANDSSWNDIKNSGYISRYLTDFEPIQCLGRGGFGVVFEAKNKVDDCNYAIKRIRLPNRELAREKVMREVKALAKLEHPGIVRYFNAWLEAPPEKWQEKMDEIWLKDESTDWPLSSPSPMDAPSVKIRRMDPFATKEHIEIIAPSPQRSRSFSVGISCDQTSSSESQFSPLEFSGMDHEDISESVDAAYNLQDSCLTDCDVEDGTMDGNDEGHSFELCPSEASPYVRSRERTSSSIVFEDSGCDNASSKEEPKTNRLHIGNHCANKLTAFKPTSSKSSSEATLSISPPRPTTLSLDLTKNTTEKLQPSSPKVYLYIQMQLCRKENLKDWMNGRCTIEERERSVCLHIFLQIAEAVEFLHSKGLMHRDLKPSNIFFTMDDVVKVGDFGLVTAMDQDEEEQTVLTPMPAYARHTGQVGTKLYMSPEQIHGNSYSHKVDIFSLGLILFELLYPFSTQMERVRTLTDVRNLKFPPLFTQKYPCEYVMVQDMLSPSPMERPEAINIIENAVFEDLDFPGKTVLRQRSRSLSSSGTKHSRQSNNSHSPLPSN
Give only the number. pIC50 is defined as minus log10 of concentration in molar units.

Asked: Record Cc1cc(NC(=O)Cc2ccccc2)ccc1-c1cnc(N)c(C(=O)NC(C)C)c1 : what is its pIC50 with UniProtKB Q9NZJ5?
Given back: 7.14

Asked: Value wanted: pIC50 (UniProtKB Q9NZJ5) of entry Cc1cc(NC(=O)[C@H](O)c2ccccc2)ccc1-c1cnc(N)c(C(=O)NC(C)C)c1
Given back: 8.05

Asked: # query: pIC50 | item CNc1ncc(-c2ccc(NC(=O)[C@H](O)c3cc(F)cc(F)c3)cc2C)cc1C(=O)NC(C)C | system: UniProtKB Q9NZJ5
Given back: 6.89

Asked: Form: Entry = CC(C)NC(=O)c1cc(-c2ccc(NC(=O)[C@H](O)c3cc(F)cc(F)c3)cc2Cl)cnc1N | System = UniProtKB Q9NZJ5 | pIC50 = ____
Given back: 8.05

Asked: Request - read-out pIC50 | tested on UniProtKB Q9NZJ5 | compound Cc1cc(NC(=O)C(O)c2cc(F)cc(F)c2)ccc1-c1cnc(N)c(C(=O)O)c1 (centres undefined)
Given back: 6.62

Asked: Query for UniProtKB Q9NZJ5: what pIC50 does the record show for Cc1cc(NC(=O)[C@](C)(O)c2ccccc2)ccc1-c1cnc(N)c(C(=O)NC(C)C)c1 ?
Given back: 6.89

Asked: What measured pIC50 is associated with CNC(=O)c1nc(-c2ccc(NC(=O)[C@H](O)c3cc(F)cc(F)c3)cc2C)cnc1N on UniProtKB Q9NZJ5?
Given back: 8.10

Asked: For UniProtKB Q9NZJ5, provide pIC50 of CCc1cc(NC(=O)[C@H](O)c2cc(F)cc(F)c2)ccc1-c1cnc(N)c(C(=O)NC(C)C)c1 please.
Given back: 8.70

Asked: Under UniProtKB Q9NZJ5: pIC50 value of Cc1cc(NC(=O)Nc2ccccc2)ccc1-c1cnc(N)c(C(=O)NC(C)C)c1 ?
Given back: 5.87

Asked: Which pIC50 is reported with UniProtKB Q9NZJ5 for this entry: Cc1cc(NC(=O)[C@@H](O)c2cc(F)cc(F)c2)ccc1-c1cnc(N)c(C(=O)NC(C)C)c1 ?
Given back: 7.59

Asked: Return pIC50 measured with UniProtKB Q9NZJ5 given this compound: CC(C)NC(=O)c1cc(-c2ccc(NC(=O)[C@H](O)c3cc(F)cc(F)c3)cc2F)cnc1N
Given back: 7.77

Asked: Fill in the recorded pIC50 for this compound, with UniProtKB Q9NZJ5 as test system: Cc1cc(NC(=O)[C@H](O)c2cc(F)cc(F)c2)ccc1-c1cnc(N)c(C(=O)NC2CC2)c1
Given back: 8.52
